System: BXPC-3
experiment: cells
settings: Homo sapiens, BXPC-3, 72 h
Description: Antiproliferative activity against human BXPC-3 cells assessed as cell viability incubated for 72 hrs by MTT assay
measured.attribute: IC50 (nM)

compound	measured.attribute	readout.value
CCN1CCN(C(C)C(=O)N(C)c2ccc(N/C(=C3\C(=O)Nc4cc(Cl)ccc43)c3ccccc3)cc2)CC1 (racemic)	IC50	1010
COC(=O)c1ccc2c(c1)NC(=O)/C2=C(\Nc1ccc(N(C)C(=O)CN2CCCN(C)CC2)cc1)c1ccccc1	IC50	3730

A: CC(C(=O)N(C)c1ccc(N/C(=C2\C(=O)Nc3cc(Br)ccc32)c2ccccc2)cc1)N(C)CCN(C)C (racemic)
B: CN(C(=O)CN1CCN(CCO)CC1)c1ccc(N/C(=C2\C(=O)Nc3cc(Cl)ccc32)c2ccccc2)cc1
**Query** Which value of IC50 is smaller, the one for A or the one for B ? Please indicate the selected item by its label.
**Result** B
(B: 1540 nM, A: 3740 nM)

a: CCN1CCN(CC(=O)N(C)c2ccc(N/C(=C3\C(=O)Nc4cc(Cl)ccc43)c3ccccc3)cc2)CC1
b: COC(=O)c1ccc2c(c1)NC(=O)/C2=C(\Nc1ccc(N(C)C(=O)C(C)N(C)CCN(C)C)cc1)c1ccccc1 (racemic)
c: CN(C(=O)CN1CCN(CCO)CC1)c1ccc(N/C(=C2\C(=O)Nc3cc(Br)ccc32)c2ccccc2)cc1
**Query** Endpoint returns the given compounds ordered by ascending IC50. Ranked list of labels, please, in the requested order.
**Result** a, c, b
(a: 1780 nM, c: 3570 nM, b: 5780 nM)

I: CC(C(=O)N(C)c1ccc(N/C(=C2\C(=O)Nc3cc(Cl)ccc32)c2ccccc2)cc1)N1CCCN(C)CC1 (racemic)
II: CN(C)CCN(C)CC(=O)N(C)c1ccc(N/C(=C2\C(=O)Nc3cc(Br)ccc32)c2ccccc2)cc1
**Query** Which value of IC50 is smaller, the one for I or the one for II ? Please indicate the selected item by its label.
**Result** I

I: CCN1CCN(C(C)C(=O)N(C)c2ccc(N/C(=C3\C(=O)Nc4cc(C(=O)OC)ccc43)c3ccccc3)cc2)CC1 (racemic)
II: COC(=O)c1ccc2c(c1)NC(=O)/C2=C(\Nc1ccc(N(C)C(=O)C(C)N2CCN(CCO)CC2)cc1)c1ccccc1 (racemic)
**Query** Larger number for IC50: I , or II ? Please indicate the selected item by its label.
**Result** II

---

experiment: Cytotoxicity against human HUVEC cells assessed as cell viability incubated for 72 hrs by MTT assay
Assay type: toxicity, cell-based
measured.attribute: IC50 at 72 h (nM)
Express the result in nM but write the number alone.

compound	IC50 at 72 h / nM
CC(C(=O)N(C)c1ccc(N/C(=C2\C(=O)Nc3cc(Cl)ccc32)c2ccccc2)cc1)N1CCN(C)CC1 (racemic)	840

**Query** I have this compound here, COC(=O)c1ccc2c(c1)NC(=O)/C2=C(\Nc1ccc(N(C)C(=O)C(C)N2CCN(CCO)CC2)cc1)c1ccccc1 (racemic) , and I need its recorded IC50 at 72 h.
**Result** 1090

---

experiment: Cytotoxicity against mouse NIH/3T3 cells assessed as cell viability incubated for 72 hrs by MTT assay
Format: toxicity, cell-based, NIH3T3
Each item that follows carries a reported IC50 at 72 h.
Express the result in nM but write the number alone.

In the examples that follow, each entry is paired with its recorded IC50 at 72 h.
molecule	display.unit	readout.value
CN(C)CCN(C)CC(=O)N(C)c1ccc(N/C(=C2\C(=O)Nc3cc(Br)ccc32)c2ccccc2)cc1	nM	5890
CN(C(=O)CN1CCN(CCO)CC1)c1ccc(N/C(=C2\C(=O)Nc3cc(Cl)ccc32)c2ccccc2)cc1	nM	2200
CN1CCCN(CC(=O)N(C)c2ccc(N/C(=C3\C(=O)Nc4cc(Cl)ccc43)c3ccccc3)cc2)CC1	nM	4520
CCN1CCN(CC(=O)N(C)c2ccc(N/C(=C3\C(=O)Nc4cc(C(=O)OC)ccc43)c3ccccc3)cc2)CC1	nM	3440
CN(C(=O)CN1CCN(CCO)CC1)c1ccc(N/C(=C2\C(=O)Nc3cc(Br)ccc32)c2ccccc2)cc1	nM	2950

**Query** I have this molecule here, `COC(=O)c1ccc2c(c1)NC(=O)/C2=C(\Nc1ccc(N(C)C(=O)CN(C)CCN(C)C)cc1)c1ccccc1` , and I need its recorded IC50 at 72 h.
**Result** 3570

**Query** I have this molecule here, COC(=O)c1ccc2c(c1)NC(=O)/C2=C(\Nc1ccc(N(C)C(=O)C(C)N2CCC(N(C)C)CC2)cc1)c1ccccc1 (racemic) , and I need its recorded IC50 at 72 h.
**Result** 1990

**Query** I have this molecule here, COC(=O)c1ccc2c(c1)NC(=O)/C2=C(\Nc1ccc(N(C)C(=O)C(C)N2CCN(C)CC2)cc1)c1ccccc1 (racemic) , and I need its recorded IC50 at 72 h.
**Result** 2250

---

Each item that follows carries a reported IC50 at 72 h.
experiment: Cytotoxicity against human HUVEC cells assessed as cell viability incubated for 72 hrs by MTT assay
Format: toxicity, cell-based
Express the result in µM but write the number alone.

In the examples that follow, each entry is paired with its recorded IC50 at 72 h.
compound	measured.attribute	readout.value
CCN1CCN(CC(=O)N(C)c2ccc(N/C(=C3\C(=O)Nc4cc(C(=O)OC)ccc43)c3ccccc3)cc2)CC1	IC50 at 72 h	2.72
COC(=O)c1ccc2c(c1)NC(=O)/C2=C(\Nc1ccc(N(C)C(=O)C(C)N(C)CCN(C)C)cc1)c1ccccc1 (racemic)	IC50 at 72 h	2
CC(C(=O)N(C)c1ccc(N/C(=C2\C(=O)Nc3cc(Cl)ccc32)c2ccccc2)cc1)N1CCC(N(C)C)CC1 (racemic)	IC50 at 72 h	0.83
CC(C(=O)N(C)c1ccc(N/C(=C2\C(=O)Nc3cc(Cl)ccc32)c2ccccc2)cc1)N1CCCN(C)CC1 (racemic)	IC50 at 72 h	0.69
CCN1CCN(CC(=O)N(C)c2ccc(N/C(=C3\C(=O)Nc4cc(Br)ccc43)c3ccccc3)cc2)CC1	IC50 at 72 h	1.57

**Query** I have this compound here, `COC(=O)c1ccc2c(c1)NC(=O)/C2=C(\Nc1ccc(N(C)C(=O)[C@@H](C)N2CCN(C)CC2)cc1)c1ccccc1` , and I need its recorded IC50 at 72 h.
**Result** 1.36

**Query** I have this compound here, `CN1CCN(CC(=O)N(C)c2ccc(N/C(=C3\C(=O)Nc4cc(Cl)ccc43)c3ccccc3)cc2)CC1` , and I need its recorded IC50 at 72 h.
**Result** 1.8

**Query** I have this compound here, `COC(=O)c1ccc2c(c1)NC(=O)/C2=C(\Nc1ccc(N(C)C(=O)CN2CCN(C)CC2)cc1)c1ccccc1` , and I need its recorded IC50 at 72 h.
**Result** 3.69

**Query** I have this compound here, `CN1CCCN(CC(=O)N(C)c2ccc(N/C(=C3\C(=O)Nc4cc(Br)ccc43)c3ccccc3)cc2)CC1` , and I need its recorded IC50 at 72 h.
**Result** 3.19

**Query** I have this compound here, `CCN1CCN(CC(=O)N(C)c2ccc(N/C(=C3\C(=O)Nc4cc(Cl)ccc43)c3ccccc3)cc2)CC1` , and I need its recorded IC50 at 72 h.
**Result** 1.85

**Query** I have this compound here, CC(C(=O)N(C)c1ccc(N/C(=C2\C(=O)Nc3cc(Br)ccc32)c2ccccc2)cc1)N1CCN(C)CC1 (racemic) , and I need its recorded IC50 at 72 h.
**Result** 0.95

**Query** I have this compound here, `CN(C(=O)CN1CCC(N(C)C)CC1)c1ccc(N/C(=C2\C(=O)Nc3cc(Br)ccc32)c2ccccc2)cc1` , and I need its recorded IC50 at 72 h.
**Result** 1.94

**Query** I have this compound here, `COC(=O)c1ccc2c(c1)NC(=O)/C2=C(\Nc1ccc(N(C)C(=O)CN2CCCN(C)CC2)cc1)c1ccccc1` , and I need its recorded IC50 at 72 h.
**Result** 2.91

**Query** I have this compound here, CC(C(=O)N(C)c1ccc(N/C(=C2\C(=O)Nc3cc(Br)ccc32)c2ccccc2)cc1)N1CCC(N(C)C)CC1 (racemic) , and I need its recorded IC50 at 72 h.
**Result** 1.11

---

experiment: AUC (0 to last) in Sprague-Dawley rat at 5 mg/kg, iv
Assay type: ADME, organism-based
settings: Sprague-Dawley, in vivo
measured.attribute: AUC(0-t) (ng·h/mL)
Express the result in ng·h/mL but write the number alone.

**Query** I have this compound here, CCN1CCN(C(C)C(=O)N(C)c2ccc(N/C(=C3\C(=O)Nc4cc(Cl)ccc43)c3ccccc3)cc2)CC1 (racemic) , and I need its recorded AUC(0-t).
**Result** 1770

---

experiment: AUC (0 to last) in Sprague-Dawley rat at 50 mg/kg, po
Type: ADME, organism-based
settings: Sprague-Dawley, in vivo
measured.attribute: AUC(0-t) (ng·h/mL)
Express the result in ng·h/mL but write the number alone.

**Query** I have this molecule here, CCN1CCN(C(C)C(=O)N(C)c2ccc(N/C(=C3\C(=O)Nc4cc(Cl)ccc43)c3ccccc3)cc2)CC1 (racemic) , and I need its recorded AUC(0-t).
**Result** 1150
